TARGET_SYSTEM: hTSLP-His (human, UniProt Q969D9 29-159, limits assumed)
PROCEDURE_SUMMARY: cell-based or functional assay
Recorded IC50 [pM], STAT5 phosphorylation inhibition in MUTZ5 cells by entry
API: value field is a number in pM; no unit string.

Study these solved cases before continuing.
BDG38.094 (antibody, V domains shown, IgG1) VH: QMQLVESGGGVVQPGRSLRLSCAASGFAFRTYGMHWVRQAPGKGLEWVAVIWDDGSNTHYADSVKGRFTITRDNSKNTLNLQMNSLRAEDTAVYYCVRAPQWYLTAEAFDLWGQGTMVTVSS VL: SYVLTQPPSVSVAPGETASITCGGNLIGAYLVHWYQQKPGQAPLLVIYDDVDRPARIPERFSGSNSGNTATLTISRVEAGDEADYYCQVWDHNSNHMVFGGGTKLTVL    27.2
BDG38.079 (antibody, V domains shown) VH: QMQLVESGGGVVQPGRSLRLSCAASGFAFRTYGMHWVRQAPGKGLEWVAVIWYDGSNTHYADSVKGRFTITRDNSKNTLNLQMNSLRAEDTAVYYCVRAPQWYLTAEAFDLWGQGTMVTVSS VL: SYVLTQPPSVSVAPGETATITCGGNMIGGYLVHWYQQKPGQAPLLVIYDDVDRPDRIPERFSGSNSGNTATLTISRVEAGDEADYYCQVWDHDSNTMVFGGGTKLTVL    21.8

Lab note: measured IC50 [pM], STAT5 phosphorylation inhibition in MUTZ5 cells of BDG38.086 (antibody, V domains shown) VH: QMQLVESGGGVVQPGRSLRLSCAASGFEFRTYGMHWVRQAPGKGLEWVGVIWYDGSNTHYADSVKGRFTITRDNSKNTLNLQMNSLRAEDTAVYYCVRAPQWYLTAEAFDLWGQGTMVTVSS VL: SYVLTQPPSVSVAPGQTARITCGGNLIGARLVHWYQQKPGQAPVLVVYDDSDRPSRIPERFSGSNIGNTATLTISDVEEGDEADYYCQVWDYSSNTYVFGGGTKLTVL was 830
